Experiment: recombinant UMI read abundance after kanamycin selection (control-corrected) (log10(CPM+1)); higher = more efficient recombination; extreme values may be limits of the assay; sequences stand for … in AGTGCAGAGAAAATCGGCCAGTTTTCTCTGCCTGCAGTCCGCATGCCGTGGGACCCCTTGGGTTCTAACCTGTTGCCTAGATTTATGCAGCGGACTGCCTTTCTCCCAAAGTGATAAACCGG…AGGTTGGTTTCACT; site = the 11-nt donor
recombinant UMI read abundance (log10) below 0.5 gives 0.0; recombinant UMI read abundance (log10) at or above it gives 1.0.

* ACACATCCATGGACCGGTTTTCCCGGTAATCCGTATTTGCC (site ACACATCCTGA) | 1.0
* TATCCATCATGGACCGGTTTTCCCGGTAATCCGTATTTGCG (site TATCCATCTCG) | 1.0
* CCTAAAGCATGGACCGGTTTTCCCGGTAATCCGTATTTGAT (site CCTATAGCTAT) | 0.0
* GAAGCAGCATGGACCGGTTTTCCCGGTAATCCGTATTTGCT (site GAAGCAGCTAG) | 1.0
* ATCTATACATGGACCGGTTTTCCCGGTAATCCGTATTTGAA (site ATCTATACTAT) | 0.0
* ACAGATCCATGGACCGGTTTTCCCGGTAATCCGTATTTGAC (site ACAAATCCTGT) | 0.0
* CAGTCGTCATGGACCGGTTTTCCCGGTAATCCGTATTTGGG (site CAGTCGGCTCC) | 0.0
* CTGCTACCATGGACCGGTTTTCCCGGTAATCCGTATTTGCA (site CTGCTACCTAG) | 0.0
* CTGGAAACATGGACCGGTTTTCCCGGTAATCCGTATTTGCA (site CTAGAAACTTG) | 1.0
* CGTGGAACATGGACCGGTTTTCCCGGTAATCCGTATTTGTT (site TGTGGAACTAA) | 0.0
* TGCGTCACATGGACCGGTTTTCCCGGTAATCCGTATTTGCC (site TGCGTCACTGG) | 1.0
* ACGTGTTCATGGACCGGTTTTCCCGGTAATCCGTATTTGAC (site ACGTGTTCTGT) | 1.0
* AGGACGACATGGACCGGTTTTCCCGGTAATCCGTATTTGGA (site AGGAAGACTTG) | 0.0
* CGATGATCATGGACCGGTTTTCCCGGTAATCCGTATTTGCT (site CGATTATCTAG) | 1.0
* TACGTCGCATGGACCGGTTTTCCCGGTAATCCGTATTTGGA (site TACGTCGCTTC) | 1.0
* CAATGAGCATGGACCGGTTTTCCCGGTAATCCGTATTTGGG (site AAATGAGCTCC) | 0.0
* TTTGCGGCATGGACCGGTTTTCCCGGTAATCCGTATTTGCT (site TTTGCGGCTCG) | 0.0
* CACCTTACATGGACCGGTTTTCCCGGTAATCCGTATTTGCC (site CACCTTACTGG) | 1.0
* CTGAACCCATGGACCGGTTTTCCCGGTAATCCGTATTTGTT (site CTGAACCCTAA) | 0.0

###

recombinant barcode read abundance (log10) reference
Assay: recombinant barcode read abundance after kanamycin selection (control-corrected) (log10(CPM+1)); higher = more efficient recombination; sequences stand for … in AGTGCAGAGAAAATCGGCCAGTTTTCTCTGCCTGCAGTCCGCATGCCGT…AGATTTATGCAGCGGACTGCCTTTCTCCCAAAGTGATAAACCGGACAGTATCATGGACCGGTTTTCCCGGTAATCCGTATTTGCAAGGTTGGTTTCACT; site = the 11-nt target
ASSAY READOUT: recombinant barcode read abundance (log10)

• CCACACACTTGGGTTCTAACCTGTTGCCT (site CCACACACTAG) = 0.345
• ACGTGGACTTGGGTTCTAACCTGTTGCTA (site ACGTGGACTTA) = 1.06
• GACTGCCCTTGGGTTCTAACCTGTTGCCT (site GACTGCCCTAG) = 0.166
• TATTAGACTTGGGTTCTAACCTGTTGCCT (site GATTAGACTAG) = 0.209
• GGGGCCTCTTGGGTTCTAACCTGTTGCTT (site GGGGCCTCTAA) = 2.59
• GTGCAGACTTGGGTTCTAACCTGTTGCCT (site GTACAGACTAG) = 2.5
• GTCAAGTCTTGGGTTCTAACCTGTTGCTC (site CGACTCCCTAC) = 0.101
• CTACAATCTTGGGTTCTAACCTGTTGCCT (site GTACAATCTAG) = 0.0211
• GTGGTAACTTGGGTTCTAACCTGTTGCCT (site GTGGTAGCTAG) = 0.3
• ACGTCACCTTGGGTTCTAACCTGTTGCCT (site CCGTCACCTAG) = 0.0656
• GCCCGTCCTTGGGTTCTAACCTGTTGCCG (site GCCCGTCCTCG) = 1
• GTCTACTCTTGGGTTCTAACCTGTTGCTG (site GTCTTCTCTAA) = 0.0134
• CTAAATACTTGGGTTCTAACCTGTTGCGT (site CTAAATACTAC) = 1.54
• CTCTAGGCTTGGGTTCTAACCTGTTGCCT (site CTCTTGGCTAG) = 0.13
• TCTTATTCTTGGGTTCTAACCTGTTGCGT (site TCTGATTCTAC) = 0.0368
• GCAGTAGCTTGGGTTCTAACCTGTTGCCA (site CCGGTAGCTTG) = 0.188
• ACACTAACTTGGGTTCTAACCTGTTGCCT (site AAACTAACTAG) = 0.071
• GTCGGCACTTGGGTTCTAACCTGTTGCCT (site GTCGGGACTAG) = 0.653
• TCACTTCCTTGGGTTCTAACCTGTTGCCT (site TCACTTCCTAG) = 0.0238
• AGGAACACTTGGGTTCTAACCTGTTGCTG (site AGGAACACTCA) = 2.65
• ACCGTGACTTGGGTTCTAACCTGTTGCCT (site ACCGTGACTAG) = 1.96
• GTTCCCTCTTGGGTTCTAACCTGTTGCTT (site GCTCACTCTAA) = 0.245
• AGCCACGCTTGGGTTCTAACCTGTTGCCT (site AGCCACACTAG) = 0.124
• CTGAGGACTTGGGTTCTAACCTGTTGCCT (site ATGAGGACTAG) = 0.0813
• TCGAGTCCTTGGGTTCTAACCTGTTGCCA (site TGGTGTCCTTG) = 0
• CATAGTCCTTGGGTTCTAACCTGTTGCAT (site CATAGACCTAT) = 0.213
• TAGTCCTCTTGGGTTCTAACCTGTTGCTC (site TAGTCCTCTAA) = 0.0149
• AATGTACCTTGGGTTCTAACCTGTTGCCT (site AATGTACCTAG) = 1.89
• CTAAAGACTTGGGTTCTAACCTGTTGCAC (site CTAAAGACTGT) = 1.42
• AGAGAACCTTGGGTTCTAACCTGTTGCCT (site TGAGAACCTAG) = 1.14
• GAGTGTACTTGGGTTCTAACCTGTTGCAT (site GAGTGTACTAT) = 1.32
• GAGCTGCCTTGGGTTCTAACCTGTTGCTT (site AAGCTGCCTAG) = 0.25
• CCAGAGTCTTGGGTTCTAACCTGTTGCCG (site CCAGAGTCTTG) = 0.152

###

Experiment: recombinant barcode read abundance after kanamycin selection (control-corrected) (log10(CPM+1)); higher = more efficient recombination; sequences stand for … in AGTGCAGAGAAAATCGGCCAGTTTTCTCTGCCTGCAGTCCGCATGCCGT…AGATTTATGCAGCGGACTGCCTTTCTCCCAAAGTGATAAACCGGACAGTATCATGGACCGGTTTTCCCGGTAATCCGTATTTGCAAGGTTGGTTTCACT; site = the 11-nt target
ASSAY READOUT: recombinant barcode read abundance (log10)

* CTCCGCCCTTGGGTTCTAACCTGTTGCTT (site CTCCGTCCTAA) | 0.0629
* CACTATCCTTGGGTTCTAACCTGTTGCCT (site CACTATCCTAG) | 2.16
* ACATGGTCTTGGGTTCTAACCTGTTGCGT (site ACATGGTCTAC) | 2.92
* GCGTGCCCTTGGGTTCTAACCTGTTGCTA (site GCGTGCCCTTA) | 0.356
* TCTAACCCTTGGGTTCTAACCTGTTGCGG (site TCCAACCCTCC) | 0.0105
* CACCGTCCTTGGGTTCTAACCTGTTGCGT (site CACCGTCCTAT) | 1.57
* AGTTTCGCTTGGGTTCTAACCTGTTGCGG (site AGTGTCGCTCC) | 0.0655
* GCAAGTACTTGGGTTCTAACCTGTTGCAG (site AGGTTAGCTTA) | 0.106
* GGGGCACCTTGGGTTCTAACCTGTTGCAT (site GGGGCACCTAA) | 1.56
* CCTCCCTCTTGGGTTCTAACCTGTTGCTG (site CCTCCCTCTCA) | 2.49
* TCTACTTCTTGGGTTCTAACCTGTTGCCT (site TCTACCTCTAG) | 0.123
* AGTCCGTCTTGGGTTCTAACCTGTTGCAT (site AGTCCGTCTAT) | 1.29
* GAGCGCTCTTGGGTTCTAACCTGTTGCTA (site GAGCGCTCTGA) | 0.12
* TTGAATGCTTGGGTTCTAACCTGTTGCCT (site TTGAATGCTAG) | 1.15
* TGAGTTCCTTGGGTTCTAACCTGTTGCTT (site TGAGTTCCTAA) | 0.719
* CGATTAGCTTGGGTTCTAACCTGTTGCCT (site CGATTAGCTAG) | 0.169
* GGGACCTCTTGGGTTCTAACCTGTTGCGG (site GGGACCTCTCC) | 1.94
* CGAGAGTCTTGGGTTCTAACCTGTTGCGG (site AGAGAGGCTCC) | 0.119
* TCTCGAGCTTGGGTTCTAACCTGTTGCGA (site TCTCGAGCTTC) | 0.78
* AAGAGCACTTGGGTTCTAACCTGTTGCCT (site TAGAGCACTAG) | 0.315
* CTTGCTCCTTGGGTTCTAACCTGTTGCAT (site CTTGCTCCTAT) | 0.227
* GGTAGGACTTGGGTTCTAACCTGTTGCCT (site TGTAGGACTAG) | 0.0335
* AGTTGTCCTTGGGTTCTAACCTGTTGCGT (site AGTTGTCCTAA) | 0.121
* GAGGCTCCTTGGGTTCTAACCTGTTGCCA (site GAGGCTCCTGG) | 0.164
* TGTCGATCTTGGGTTCTAACCTGTTGCCT (site TGTCAATCTAC) | 0.0889
* AATTAGACTTGGGTTCTAACCTGTTGCCT (site AATTAGACTAG) | 1.12
* GTCGCGTCTTGGGTTCTAACCTGTTGCCT (site GTCGCGCCTAG) | 0.738
* AGTGCGTCTTGGGTTCTAACCTGTTGCCT (site AGTGCGTCTAG) | 1.52
* GTCTCGGCTTGGGTTCTAACCTGTTGCTG (site GGGTCGGCTCA) | 0.0356
* ACTCTAACTTGGGTTCTAACCTGTTGCTT (site ACTATAACTAA) | 0.154
* CTTACGGCTTGGGTTCTAACCTGTTGCCT (site CTTACCGCTAG) | 0.196
* CTAAAAGCTTGGGTTCTAACCTGTTGCAA (site GGCTGTCCTAC) | 0.628
* CTAGTGACTTGGGTTCTAACCTGTTGCGA (site CTAGTGACTGC) | 0.0599
* ACGCCTCCTTGGGTTCTAACCTGTTGCTG (site ACGACTCCTCA) | 0.0447
* AACCTTACTTGGGTTCTAACCTGTTGCCT (site AGCCTTACTAG) | 0.0388
* AAACGGCCTTGGGTTCTAACCTGTTGCCT (site AAACGGCCTAG) | 0.522
